Biological target: ATR kinase (Homo sapiens (Human), UniProt Q13535)
Sequence (Q13535 whole entry): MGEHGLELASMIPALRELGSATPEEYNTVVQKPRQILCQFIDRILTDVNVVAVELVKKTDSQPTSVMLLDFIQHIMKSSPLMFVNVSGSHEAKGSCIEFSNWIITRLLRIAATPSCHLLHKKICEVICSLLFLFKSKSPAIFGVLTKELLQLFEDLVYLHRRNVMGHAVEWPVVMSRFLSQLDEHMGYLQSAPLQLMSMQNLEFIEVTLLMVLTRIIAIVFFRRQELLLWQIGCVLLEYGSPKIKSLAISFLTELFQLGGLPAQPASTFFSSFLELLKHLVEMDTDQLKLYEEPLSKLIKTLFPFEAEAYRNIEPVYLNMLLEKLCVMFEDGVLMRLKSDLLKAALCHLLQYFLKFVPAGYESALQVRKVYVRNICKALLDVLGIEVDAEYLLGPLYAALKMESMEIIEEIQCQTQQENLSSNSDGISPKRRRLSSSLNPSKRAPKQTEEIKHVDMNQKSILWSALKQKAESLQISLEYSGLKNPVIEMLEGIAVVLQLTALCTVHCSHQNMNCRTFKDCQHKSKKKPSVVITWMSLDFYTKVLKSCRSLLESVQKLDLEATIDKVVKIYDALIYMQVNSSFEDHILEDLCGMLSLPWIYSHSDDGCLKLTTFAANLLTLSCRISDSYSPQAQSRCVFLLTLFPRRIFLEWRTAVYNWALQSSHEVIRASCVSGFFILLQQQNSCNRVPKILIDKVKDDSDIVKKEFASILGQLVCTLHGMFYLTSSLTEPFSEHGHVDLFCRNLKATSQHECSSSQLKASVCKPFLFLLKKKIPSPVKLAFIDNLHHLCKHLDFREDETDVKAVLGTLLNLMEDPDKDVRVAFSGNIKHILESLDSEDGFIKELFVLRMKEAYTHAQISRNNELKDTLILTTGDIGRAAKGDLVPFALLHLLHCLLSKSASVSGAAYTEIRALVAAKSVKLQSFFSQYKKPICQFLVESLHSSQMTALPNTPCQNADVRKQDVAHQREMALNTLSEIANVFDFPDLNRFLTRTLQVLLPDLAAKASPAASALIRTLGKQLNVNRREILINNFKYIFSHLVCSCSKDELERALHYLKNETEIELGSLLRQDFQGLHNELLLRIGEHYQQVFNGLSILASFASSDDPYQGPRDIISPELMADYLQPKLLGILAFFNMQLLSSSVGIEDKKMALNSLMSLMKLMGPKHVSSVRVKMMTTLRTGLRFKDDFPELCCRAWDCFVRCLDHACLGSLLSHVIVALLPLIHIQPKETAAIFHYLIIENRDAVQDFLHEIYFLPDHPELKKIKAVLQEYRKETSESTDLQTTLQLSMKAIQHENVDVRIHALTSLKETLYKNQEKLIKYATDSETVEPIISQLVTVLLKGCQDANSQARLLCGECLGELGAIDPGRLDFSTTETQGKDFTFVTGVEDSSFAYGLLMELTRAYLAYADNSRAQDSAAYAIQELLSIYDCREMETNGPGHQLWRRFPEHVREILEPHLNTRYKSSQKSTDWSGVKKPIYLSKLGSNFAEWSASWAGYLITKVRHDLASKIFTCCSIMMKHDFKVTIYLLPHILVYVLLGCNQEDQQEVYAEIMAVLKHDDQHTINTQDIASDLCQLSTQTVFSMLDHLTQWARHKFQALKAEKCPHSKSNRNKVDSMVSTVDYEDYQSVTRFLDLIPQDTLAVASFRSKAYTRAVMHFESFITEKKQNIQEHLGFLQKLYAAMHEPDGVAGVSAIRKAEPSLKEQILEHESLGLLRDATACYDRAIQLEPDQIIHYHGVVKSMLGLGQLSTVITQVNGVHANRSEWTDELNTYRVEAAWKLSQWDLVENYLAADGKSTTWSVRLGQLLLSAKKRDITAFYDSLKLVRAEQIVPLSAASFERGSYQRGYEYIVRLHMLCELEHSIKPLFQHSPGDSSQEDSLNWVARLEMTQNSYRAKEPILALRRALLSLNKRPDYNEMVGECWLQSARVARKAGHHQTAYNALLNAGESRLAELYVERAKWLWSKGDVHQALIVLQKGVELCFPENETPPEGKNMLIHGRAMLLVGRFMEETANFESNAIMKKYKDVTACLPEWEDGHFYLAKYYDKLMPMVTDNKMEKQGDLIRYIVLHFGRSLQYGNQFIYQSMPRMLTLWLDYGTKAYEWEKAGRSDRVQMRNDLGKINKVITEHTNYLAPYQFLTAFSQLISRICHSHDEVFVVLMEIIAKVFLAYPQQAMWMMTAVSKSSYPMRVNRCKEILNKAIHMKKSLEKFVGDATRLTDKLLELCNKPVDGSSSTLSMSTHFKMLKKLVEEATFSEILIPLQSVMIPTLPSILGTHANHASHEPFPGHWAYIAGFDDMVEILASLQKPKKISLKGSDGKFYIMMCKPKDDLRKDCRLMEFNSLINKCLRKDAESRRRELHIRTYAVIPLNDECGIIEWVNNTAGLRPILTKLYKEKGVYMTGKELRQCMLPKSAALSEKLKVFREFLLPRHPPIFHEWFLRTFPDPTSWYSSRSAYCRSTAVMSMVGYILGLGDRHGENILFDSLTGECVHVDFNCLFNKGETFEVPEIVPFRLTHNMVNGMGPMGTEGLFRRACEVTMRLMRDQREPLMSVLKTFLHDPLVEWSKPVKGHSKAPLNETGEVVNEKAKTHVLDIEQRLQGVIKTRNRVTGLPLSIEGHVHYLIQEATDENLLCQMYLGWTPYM
Sequence (Q8WXE1 whole entry partner): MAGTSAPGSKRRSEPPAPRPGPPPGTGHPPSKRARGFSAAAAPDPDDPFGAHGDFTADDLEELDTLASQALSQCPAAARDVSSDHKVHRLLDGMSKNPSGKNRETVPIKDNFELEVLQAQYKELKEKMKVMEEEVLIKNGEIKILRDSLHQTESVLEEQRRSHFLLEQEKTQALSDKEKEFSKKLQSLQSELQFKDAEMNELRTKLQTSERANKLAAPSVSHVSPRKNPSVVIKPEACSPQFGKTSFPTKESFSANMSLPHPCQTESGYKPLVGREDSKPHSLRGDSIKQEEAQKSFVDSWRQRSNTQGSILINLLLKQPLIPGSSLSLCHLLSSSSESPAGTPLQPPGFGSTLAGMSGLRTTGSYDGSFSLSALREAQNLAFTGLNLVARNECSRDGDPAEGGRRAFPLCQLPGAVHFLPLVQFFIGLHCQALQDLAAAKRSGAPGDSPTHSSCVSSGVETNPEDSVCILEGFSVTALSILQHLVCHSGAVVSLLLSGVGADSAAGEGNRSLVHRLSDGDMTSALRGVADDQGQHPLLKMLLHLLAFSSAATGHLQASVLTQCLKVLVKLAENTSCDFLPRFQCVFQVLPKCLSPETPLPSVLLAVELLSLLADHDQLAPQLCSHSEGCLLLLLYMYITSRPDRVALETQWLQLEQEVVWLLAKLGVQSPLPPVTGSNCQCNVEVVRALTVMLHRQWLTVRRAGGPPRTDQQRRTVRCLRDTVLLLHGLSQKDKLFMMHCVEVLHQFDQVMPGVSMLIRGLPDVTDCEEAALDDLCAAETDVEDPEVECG
pIC50: −log10 of the molar value.
Decision: pIC50 >= 8 yields rule met, all other cases yield rule not met.

Task item: Hi, just wondering whether CCS(=O)(=O)n1ccc2c(N3CCOC[C@H]3C)nc(-c3ccnc4[nH]ccc34)nc21 shows pIC50 of 8 or higher.
Reply: rule met

Task item: Hi, just wondering whether C[C@@H]1COCCN1c1cc(-c2ccnc3[nH]ccc23)nc2c1ccn2C [Compound 2′, reference compound] shows pIC50 of 8 or higher.
Reply: rule not met

Task item: Hi, just wondering whether C[C@@H]1COCCN1c1cc(-c2ncnc3[nH]ccc23)nc2c1ccn2S(C)(=O)=O shows pIC50 of 8 or higher.
Reply: rule not met

Task item: Hi, just wondering whether C[C@@H]1COCCN1c1cc(-c2ccnc3[nH]ccc23)c2ccn(S(C)(=O)=O)c2n1 [Compound 6′, reference compound] shows pIC50 of 8 or higher.
Reply: rule not met

Task item: Hi, just wondering whether CNc1nc2ccccc2n1-c1nc(N2CCOC[C@H]2C)c2ccn(S(C)(=O)=O)c2n1 shows pIC50 of 8 or higher.
Reply: rule met

---

Test system: human colon cancer LoVo cells
Experiment: Cell proliferation inhibition assay (CellTiter-Glo)
Format: cell-based
Settings: Homo sapiens; LoVo cells, 96 hours incubation
measuredQuantity: IC50 (nM)
Provide the reading as a plain figure in nM.

Task item: # lookup: human colon cancer LoVo cells IC50, key = C[C@@H]1COCCN1c1nc(-c2ccnc3[nH]ccc23)nc2c1cnn2S(C)(=O)=O
Reply: 740

---

measuredQuantity: pIC50
In textbook form, pIC50 equals minus log to base ten of the concentration in mol/L.

Task item: # lookup: ATR kinase (Homo sapiens (Human)) pIC50, key = C[C@@H]1COCCN1c1cc(-c2cc(F)cc3[nH]ccc23)nc2c1ccn2S(C)(=O)=O [Compound 7]
Reply: 8.49

Task item: # lookup: ATR kinase (Homo sapiens (Human)) pIC50, key = C[C@@H]1COCCN1c1nc(-c2ccnc3[nH]ccc23)cc2c1ccn2S(C)(=O)=O [Compound 26]
Reply: 8.07

Task item: # lookup: ATR kinase (Homo sapiens (Human)) pIC50, key = C[C@@H]1COCCN1c1cc(-c2cnc3[nH]ccc3c2)nc2c1ccn2S(C)(=O)=O [Compound 4]
Reply: 6.68

Task item: # lookup: ATR kinase (Homo sapiens (Human)) pIC50, key = C[C@@H]1COCCN1c1cc(-c2cn[nH]c2)nc2c1ccn2S(C)(=O)=O [Compound 10]
Reply: 6.07

Task item: # lookup: ATR kinase (Homo sapiens (Human)) pIC50, key = C[C@@H]1COCCN1c1cc(-c2ccnc3[nH]ccc23)nc2c1ccn2S(=O)(=O)N(C)C [Compound 16]
Reply: 7.77

Task item: # lookup: ATR kinase (Homo sapiens (Human)) pIC50, key = Cc1c[nH]c2nccc(-c3cc(N4CCOC[C@H]4C)c4ccn(S(C)(=O)=O)c4n3)c12 [Compound 6]
Reply: 6.73

Task item: # lookup: ATR kinase (Homo sapiens (Human)) pIC50, key = C[C@@H]1COCCN1c1nc(-c2cc(F)cc3[nH]ccc23)nc2c1ccn2S(C)(=O)=O [Compound 20]
Reply: 8.80

Task item: # lookup: ATR kinase (Homo sapiens (Human)) pIC50, key = C[C@@H]1COCCN1c1nc(-c2nc3ccccc3[nH]2)nc2c1ccn2S(C)(=O)=O [Compound 27]
Reply: 8.80

Task item: # lookup: ATR kinase (Homo sapiens (Human)) pIC50, key = C[C@@H]1COCCN1c1cc(-c2nc3ccccc3[nH]2)nc2c1ccn2S(C)(=O)=O [Compound 11]
Reply: 6.08

Task item: # lookup: ATR kinase (Homo sapiens (Human)) pIC50, key = C[C@@H]1COCCN1c1cc(-c2ccnc3[nH]ccc23)nc2c1ccn2S(C)(=O)=O [Compound 1]
Reply: 8.26

Task item: # lookup: ATR kinase (Homo sapiens (Human)) pIC50, key = C[C@@H]1COCCN1c1nc(-c2cncc3[nH]ccc23)cc2c1ncn2S(C)(=O)=O [Compound 25]
Reply: 8.03

Task item: # lookup: ATR kinase (Homo sapiens (Human)) pIC50, key = C[C@@H]1COCCN1c1nc(-c2cncc3[nH]ccc23)nc2c1ccn2C [Compound 3′, reference compound]
Reply: 7.51

Task item: # lookup: ATR kinase (Homo sapiens (Human)) pIC50, key = C[C@@H]1COCCN1c1nc(-c2ccnc3[nH]ccc23)nc2c1ccn2S(=O)(=O)CCO [Compound 21]
Reply: 8.36

Task item: # lookup: ATR kinase (Homo sapiens (Human)) pIC50, key = C[C@@H]1COCCN1c1cc(-c2ccnc3[nH]ccc23)nc2c1ccn2CS(C)(=O)=O [Compound 4′, reference compound]
Reply: 7.70

Task item: # lookup: ATR kinase (Homo sapiens (Human)) pIC50, key = C[C@@H]1COCCN1c1cc(-c2ccnc3[nH]ccc23)nc2c1ccn2S(=O)(=O)C1CC1 [Compound 15]
Reply: 7.92

Task item: # lookup: ATR kinase (Homo sapiens (Human)) pIC50, key = CC(n1cnc2c(N3CCOC[C@H]3C)nc(-c3cncc4[nH]ccc34)cc21)S(C)(=O)=O (stereo partly shown) [Compound 7′, reference compound]
Reply: 7.55

---

I'd appreciate it if you could supply IC50 values for the items below.
Provide the reading as a plain figure in nM.

Task item: # lookup: UniProtKB Q13535 IC50, key = CC(n1ccc2c(N3CCOC[C@H]3C)cc(-c3ccnc4[nH]ccc34)nc21)S(C)(=O)=O (some centres unmarked) [Compound 5′, reference compound]
Reply: 15

Task item: # lookup: UniProtKB Q13535 IC50, key = C[C@@H]1COCCN1c1nc(-c2ccnc3[nH]ccc23)nc2c1ccn2S(=O)(=O)N(C)C [Compound 34]
Reply: 7.1

Task item: # lookup: UniProtKB Q13535 IC50, key = C[C@@H]1COCCN1c1cc(-c2cncc3[nH]ccc23)nc2c1ccn2S(C)(=O)=O [Compound 3]
Reply: 10

Task item: # lookup: UniProtKB Q13535 IC50, key = C[C@@H]1COCCN1c1cc(-c2ccnc3[nH]ccc23)nc2c1ncn2S(C)(=O)=O [Compound 24]
Reply: 15

Task item: # lookup: UniProtKB Q13535 IC50, key = C[C@@H]1COCCN1c1nc(-c2ccnc3[nH]ccc23)nc2c1cnn2S(C)(=O)=O [Compound 23]
Reply: 15
